Molecular target: human recombinant HDAC6 (Homo sapiens)
Construct: purchased Calbiochem 382180
Sequence (Q9UBN7 whole entry): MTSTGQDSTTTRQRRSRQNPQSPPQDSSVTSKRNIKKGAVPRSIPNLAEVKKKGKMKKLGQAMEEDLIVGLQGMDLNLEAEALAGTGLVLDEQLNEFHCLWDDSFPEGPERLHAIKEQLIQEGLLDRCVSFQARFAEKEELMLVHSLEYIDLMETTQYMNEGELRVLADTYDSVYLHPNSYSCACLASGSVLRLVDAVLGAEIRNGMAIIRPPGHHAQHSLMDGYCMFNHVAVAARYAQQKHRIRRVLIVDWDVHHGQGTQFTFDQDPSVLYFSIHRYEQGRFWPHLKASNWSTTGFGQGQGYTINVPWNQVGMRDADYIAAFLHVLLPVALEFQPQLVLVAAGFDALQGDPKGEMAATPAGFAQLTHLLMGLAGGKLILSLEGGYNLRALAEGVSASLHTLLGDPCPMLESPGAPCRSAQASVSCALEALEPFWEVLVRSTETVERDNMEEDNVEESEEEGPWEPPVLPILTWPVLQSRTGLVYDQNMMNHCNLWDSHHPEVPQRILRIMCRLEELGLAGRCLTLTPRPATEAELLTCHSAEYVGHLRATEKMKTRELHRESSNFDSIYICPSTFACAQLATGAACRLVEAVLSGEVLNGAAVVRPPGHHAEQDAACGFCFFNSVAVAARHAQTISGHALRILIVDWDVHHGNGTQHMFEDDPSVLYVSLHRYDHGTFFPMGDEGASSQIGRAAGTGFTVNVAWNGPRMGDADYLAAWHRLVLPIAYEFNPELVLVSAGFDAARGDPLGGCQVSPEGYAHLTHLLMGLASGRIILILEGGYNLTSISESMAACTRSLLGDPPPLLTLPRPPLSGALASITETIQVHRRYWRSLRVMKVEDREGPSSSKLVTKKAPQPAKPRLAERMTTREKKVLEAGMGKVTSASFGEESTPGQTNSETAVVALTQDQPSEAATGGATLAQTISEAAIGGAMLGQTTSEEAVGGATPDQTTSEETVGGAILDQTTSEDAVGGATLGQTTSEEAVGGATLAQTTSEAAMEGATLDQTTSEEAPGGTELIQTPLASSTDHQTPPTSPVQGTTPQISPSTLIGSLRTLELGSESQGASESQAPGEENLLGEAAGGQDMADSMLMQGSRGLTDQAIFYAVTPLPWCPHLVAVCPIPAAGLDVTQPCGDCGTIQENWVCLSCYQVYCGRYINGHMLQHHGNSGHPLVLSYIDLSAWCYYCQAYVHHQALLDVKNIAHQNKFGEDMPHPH
Test: HDAC6 enzyme activity inhibition assay (HDAC Fluorimetric Drug Discovery Kit)
Type: biochemical
Details: human recombinant HDAC6, same protocol as HDAC1; read-out: HDAC6
Protocol: In order to examine the HDAC6 selectivity of the compounds of formula I of the present invention by HDAC1 and HDAC6 enzymatic activity inhibition assays, an experiment was performed using a conventional substance as a control. HDAC enzyme activity was measured using a HDAC Fluorimetric Drug Discovery Kit (BML-AK511, 516, Enzo Life Science). […] Based on the resulting values, each IC5, value was calculated using GraphPad Prism4.0 program.
Returns: string. Value is y if measured IC50 is below 100 nM, and n if it is greater than or equal to it.

1) CS(=O)(=O)N1CC2(CCN(C(=O)N(Cc3ccc(-c4nnc(C(F)(F)F)o4)cc3)c3ccccc3)CC2)C1 [Compound 21419]; y
2) O=C(NCCN1CCCOCC1)N(Cc1ccc(-c2nnc(C(F)F)o2)cc1F)c1ccccc1 [Compound 21986]; y

-- ask Please state whether IC50 is below 100 nM for CCC(=O)N1CCN(C(=O)N(Cc2ccc(-c3nnc(C(F)(F)F)o3)cc2)c2ccccc2)CC1 [Compound 21366]
-- reply n

All values here come from patent US10717716B2.
